# Tested on: CCRF-CEM
# protocol: Cytotoxicity against vinblastine-resistant human CCRF-CEM cells after 72 hrs by XTT assay
# Type: functional, cell-based
metric: pIC50
Recall that pIC50 is obtained by taking minus log10 of the concentration measured in molar.

Cc1cc(NC(=O)Nc2ccc(N(CCCl)CCCl)cc2)c2cc(N(C)C)ccc2n1
6.62
COc1cccc(-c2cc(NC(=O)Nc3ccc(N(CCCl)CCCl)cc3)c3cc4c(cc3n2)OCO4)c1
5.65
COc1cccc(-c2cc(NC(=O)Nc3ccc(N(CCCl)CCCl)cc3)c3cc(Cl)ccc3n2)c1
5.99
O=C(Nc1ccc(N(CCCl)CCCl)cc1)Nc1cc(-c2ccccc2F)nc2ccc(N3CCCC3)cc12
4.91
COc1cccc(-c2cc(NC(=O)NNc3ccc(N(CCCl)CCCl)cc3)c3cc(Cl)ccc3n2)c1
5.67

Prompt: Please report the recorded pIC50 for `COc1cccc(-c2cc(NC(=O)Nc3ccc(N(CCCl)CCCl)cc3)c3cc(OC)ccc3n2)c1` .
Response: 6.25

Prompt: `COc1cccc(-c2cc(NC(=O)NNc3ccc(N(CCCl)CCCl)cc3)c3cc4c(cc3n2)OCO4)c1` ?
Response: 5.95

Prompt: `COc1cccc(-c2cc(NC(=O)NNc3ccc(N(CCCl)CCCl)cc3)c3cc(N4CCCC4)ccc3n2)c1` ?
Response: 6.08

Prompt: `O=C(NNc1ccc(N(CCCl)CCCl)cc1)Nc1cc(-c2ccccc2F)nc2ccc(N3CCCC3)cc12` ?
Response: 6.51

* * *

# protocol: Metabolic stability in rat plasma assessed as half life
# Type: ADME, cell-free
metric: half-life (h)
Entry rule: numbers only, all in h.

Prompt: Please report the recorded half-life for `Cc1cc(NC(=O)Nc2ccc(N(CCCl)CCCl)cc2)c2ccccc2n1` .
Response: 16.5

* * *

# System: MCF7
# protocol: Cytotoxicity against human MCF7 cells after 72 hrs by alamar blue assay
# Type: functional, cell-based
# condition notes: MCF7, 72 h
metric: pIC50
Recall that pIC50 is obtained by taking minus log10 of the concentration measured in molar.

For orientation, consider the following solved cases.
O=C(NNc1ccc(N(CCCl)CCCl)cc1)Nc1cc(-c2ccccc2F)nc2ccc(N3CCCC3)cc12
6.00
COc1cccc(-c2cc(NC(=O)NNc3ccc(N(CCCl)CCCl)cc3)c3cc(OC)ccc3n2)c1
4.81

Prompt: Please report the recorded pIC50 for `Cc1cc(NC(=O)Nc2ccc(N(CCCl)CCCl)cc2)c2cc3c(cc2n1)OCO3` .
Response: 5.31

Prompt: `Cc1cc(NC(=O)Nc2ccc(N(CCCl)CCCl)cc2)c2cc(N(C)C)ccc2n1` ?
Response: 5.67

Prompt: `COc1cccc(-c2cc(NC(=O)Nc3ccc(N(CCCl)CCCl)cc3)c3cc(N4CCCC4)ccc3n2)c1` ?
Response: 5.16

Prompt: `O=C(NNc1ccc(N(CCCl)CCCl)cc1)Nc1cc(-c2ccccc2)nc2ccccc12` ?
Response: 5.20

Prompt: `COc1cccc(-c2cc(NC(=O)NNc3ccc(N(CCCl)CCCl)cc3)c3cc4c(cc3n2)OCO4)c1` ?
Response: 5.48

* * *

# protocol: Cytotoxicity against human CL1-5 cells after 72 hrs by alamar blue assay
# Assay type: functional, cell-based
# condition notes: CL1-5, 72 h
Doc: threshold 5 µM (exclusive). Items with IC50 beneath it return t; others return f.

Some entries whose results are on file:
Cc1cc(NC(=O)Nc2ccc(N(CCCl)CCCl)cc2)c2cc(N(C)C)ccc2n1
t
COc1cccc(-c2cc(NC(=O)Nc3ccc(N(CCCl)CCCl)cc3)c3cc(N4CCCC4)ccc3n2)c1
f
Cc1cc(NC(=O)Nc2ccc(N(CCCl)CCCl)cc2)c2ccccc2n1
f

Prompt: IC50 strictly < 5 µM for this molecule? `COc1cccc(-c2cc(NC(=O)NNc3ccc(N(CCCl)CCCl)cc3)c3cc(N4CCCC4)ccc3n2)c1`
Response: f

* * *

Catalogue of compounds with associated log10(IC50)
# protocol: Cytotoxicity against human H1299 cells after 72 hrs by alamar blue assay
# Type: functional, cell-based
# condition notes: NCI-H1299, 72 h
Response schema: value (number) is log10 of IC50 in units of µM.

For orientation, consider the following solved cases.
O=C(NNc1ccc(N(CCCl)CCCl)cc1)Nc1cc(-c2ccccc2)nc2ccccc12
0.64
COc1cccc(-c2cc(NC(=O)NNc3ccc(N(CCCl)CCCl)cc3)c3cc4c(cc3n2)OCO4)c1
0.31
Cc1cc(NC(=O)Nc2ccc(N(CCCl)CCCl)cc2)c2ccccc2n1
0.30

Prompt: Please report the recorded log10(IC50) for `COc1cccc(-c2cc(NC(=O)NNc3ccc(N(CCCl)CCCl)cc3)c3cc(N4CCCC4)ccc3n2)c1` .
Response: -0.02

Prompt: `O=C(NNc1ccc(N(CCCl)CCCl)cc1)Nc1cc(-c2ccccc2F)nc2ccc(N3CCCC3)cc12` ?
Response: -0.22

Prompt: `COc1cccc(-c2cc(NC(=O)Nc3ccc(N(CCCl)CCCl)cc3)c3cc(OC)ccc3n2)c1` ?
Response: 0.76

Prompt: `COc1cccc(-c2cc(NC(=O)NNc3ccc(N(CCCl)CCCl)cc3)c3cc(OC)ccc3n2)c1` ?
Response: 0.78

Prompt: `COc1ccc2nc(C)cc(NC(=O)Nc3ccc(N(CCCl)CCCl)cc3)c2c1` ?
Response: 0.12

Prompt: `Cc1cc(NC(=O)Nc2ccc(N(CCCl)CCCl)cc2)c2cc3c(cc2n1)OCO3` ?
Response: 0.74

* * *

Catalogue of molecules with associated IC50
# Test system: CCRF-CEM
# protocol: Cytotoxicity against vinblastine-resistant human CCRF-CEM cells after 72 hrs by XTT assay
# Assay type: functional, cell-based
Write the quantity with the unit trailing the number.

For orientation, consider the following solved cases.
O=C(Nc1ccc(N(CCCl)CCCl)cc1)Nc1cc(-c2ccccc2F)nc2cc3c(cc12)OCO3
2350 nM
O=C(NNc1ccc(N(CCCl)CCCl)cc1)Nc1cc(-c2ccccc2)nc2cc3c(cc12)OCO3
495 nM
O=C(NNc1ccc(N(CCCl)CCCl)cc1)Nc1cc(-c2ccccc2)nc2ccccc12
1220 nM
O=C(Nc1ccc(N(CCCl)CCCl)cc1)Nc1cc(-c2ccccc2)nc2cc3c(cc12)OCO3
1840 nM
Cc1cc(NC(=O)Nc2ccc(N(CCCl)CCCl)cc2)c2cc(N3CCCC3)ccc2n1
12900 nM

Prompt: Please report the recorded IC50 for `COc1ccc2nc(C)cc(NC(=O)Nc3ccc(N(CCCl)CCCl)cc3)c2c1` .
Response: 458 nM

Prompt: `O=C(Nc1ccc(N(CCCl)CCCl)cc1)Nc1cc(-c2ccccc2)nc2ccccc12` ?
Response: 1660 nM

Prompt: `O=C(NNc1ccc(N(CCCl)CCCl)cc1)Nc1cc(-c2ccccc2F)nc2cc3c(cc12)OCO3` ?
Response: 3170 nM

Prompt: `COc1cccc(-c2cc(NC(=O)Nc3ccc(N(CCCl)CCCl)cc3)c3cc(N4CCCC4)ccc3n2)c1` ?
Response: 774000 nM

* * *

# Test system: CCRF-CEM
# protocol: Cytotoxicity against vinblastine-resistant human CCRF-CEM cells after 72 hrs by XTT assay
# Type: functional, cell-based
Catalogue of compounds with associated IC50
Entry rule: numbers only, all in nM.

For orientation, consider the following solved cases.
Cc1cc(NC(=O)Nc2ccc(N(CCCl)CCCl)cc2)c2ccccc2n1
664
COc1cccc(-c2cc(NC(=O)NNc3ccc(N(CCCl)CCCl)cc3)c3cc(OC)ccc3n2)c1
1620

Prompt: Please report the recorded IC50 for `Cc1cc(NC(=O)Nc2ccc(N(CCCl)CCCl)cc2)c2cc3c(cc2n1)OCO3` .
Response: 652

* * *

# System: MCF7
# protocol: Cytotoxicity against human MCF7 cells after 72 hrs by alamar blue assay
# Assay type: functional, cell-based
# condition notes: MCF7, 72 h
Catalogue of molecules with associated IC50
Entry rule: numbers only, all in µM.

For orientation, consider the following solved cases.
COc1cccc(-c2cc(NC(=O)Nc3ccc(N(CCCl)CCCl)cc3)c3cc(OC)ccc3n2)c1
3.04
O=C(NNc1ccc(N(CCCl)CCCl)cc1)Nc1cc(-c2ccccc2F)nc2cc3c(cc12)OCO3
1.82
COc1ccc2nc(C)cc(NC(=O)Nc3ccc(N(CCCl)CCCl)cc3)c2c1
5.19

Prompt: Please report the recorded IC50 for `Cc1cc(NC(=O)Nc2ccc(N(CCCl)CCCl)cc2)c2ccccc2n1` .
Response: 9.08

Prompt: `COc1cccc(-c2cc(NC(=O)NNc3ccc(N(CCCl)CCCl)cc3)c3cc(N4CCCC4)ccc3n2)c1` ?
Response: 5.46

* * *

# protocol: Cytotoxicity against human CL1-5 cells after 72 hrs by alamar blue assay
# Format: functional, cell-based
# condition notes: CL1-5, 72 h
metric: log10 IC50 (log10 of the value in µM)
Response schema: value (number) is log10 of IC50 in units of µM.

O=C(NNc1ccc(N(CCCl)CCCl)cc1)Nc1cc(-c2ccccc2)nc2ccccc12
0.48
O=C(NNc1ccc(N(CCCl)CCCl)cc1)Nc1cc(-c2ccccc2F)nc2cc3c(cc12)OCO3
0.42
COc1cccc(-c2cc(NC(=O)NNc3ccc(N(CCCl)CCCl)cc3)c3cc4c(cc3n2)OCO4)c1
0.69
COc1cccc(-c2cc(NC(=O)NNc3ccc(N(CCCl)CCCl)cc3)c3cc(OC)ccc3n2)c1
1.04

Prompt: Please report the recorded log10 IC50 for `COc1ccc2nc(C)cc(NC(=O)Nc3ccc(N(CCCl)CCCl)cc3)c2c1` .
Response: 0.73

Prompt: `COc1cccc(-c2cc(NC(=O)Nc3ccc(N(CCCl)CCCl)cc3)c3cc(OC)ccc3n2)c1` ?
Response: 0.58

Prompt: `Cc1cc(NC(=O)Nc2ccc(N(CCCl)CCCl)cc2)c2cc3c(cc2n1)OCO3` ?
Response: 0.86

Prompt: `O=C(NNc1ccc(N(CCCl)CCCl)cc1)Nc1cc(-c2ccccc2F)nc2ccc(N3CCCC3)cc12` ?
Response: -0.29

The measured values listed here are drawn from ChEMBL document CHEMBL1157637.
